Parameter: growth. Scope: all listed entries.
- Test system: M14 melanoma
- assay-summary: NCI-60 one-dose screen, 48 h (100 = growth as untreated, 0 = no growth, -100 = all killed)
- assay-context: 10 µM unless noted
This is part of a sample that, as a whole, favours compounds with a hit. Of some 83,000 tested, about 20% had one in any assay.
Express it in %; write the number only.

Known results for molecules:
CCOC(=O)c1[nH]c(=O)c2c(C)nc(-c3ccccc3)cc2c1O; 104
CCNC(=O)c1[nH]cc(-c2ccccc2)c1-c1cc(OC)c2c(c1OC)OCO2; 95.8
N#CC1=C(c2ccc(Cl)cc2)Nc2c(c(-c3ccc(Cl)cc3)nn2-c2ccccc2)C12C(=O)Nc1ccc(Cl)cc12 (stereo not given); 41.9
COc1cc(NC(C)CCCNC(C)C)c2ncccc2c1OC (stereo not given); 97

Consider the record given below.
Exercise: Which growth value is on record for "O=C(CSc1nc2ccc([N+](=O)[O-])cc2[nH]1)Nc1cccc(C(F)(F)F)c1" ?
Solution: 27.6

###

- Tested on: HOP-62 NSCLC
- assay-summary: NCI-60 one-dose screen, 48 h (100 = growth as untreated, 0 = no growth, -100 = all killed)
- assay-context: 10 µM unless noted
The panel holds about 83,000 compounds, 20% with a hit somewhere; the sample as a whole holds those more often.
Rule: measured growth below 70% gets y; anything equal to or greater than 70% gets n.

Exercise: # strict comparison: is reported growth < 70%? input = "c1ccc(CNc2c3ccccc3nc3ccccc23)cc1"
Solution: y

###

- System: SK-MEL-2 melanoma
- assay-summary: NCI-60 one-dose screen, 48 h
- assay-context: 10 µM unless noted
About 83,000 compounds went through this panel and 20% of them were active in at least one assay; those are over-represented in the sample as a whole. Activity calls are given as the source filed them. How the source made its calls: active means growth percent below 10; inactive means the rest.
Select the correct class. Options are active, inactive and nothing else.

Solved entries (count: 4):
Cc1ccc(CNc2ccc(Cl)cc2NCc2ccc(C)c(O)c2)cc1O; inactive
Cn1cc(-c2nc(-c3c[nH]c4ccncc34)cs2)c2ccccc21; inactive
O=C1c2cccc3cccc(c23)C(=O)N1N1C(=O)c2cccc3c(N4CCOCC4)ccc(c23)C1=O; inactive
CN([O-])c1nc(N(C)[O-])nc(N2CCOCC2)n1.CN([O-])c1nc(N(C)[OH2+])nc(N2CCOCC2)n1.[Fe+3]; inactive

Exercise: Record lookup: outcome of this test for "COc1ccc(-c2ccc3cnc4sc(-c5ccc(OC)cc5)nc4c3n2)cc1" ?
Solution: inactive

Exercise: Entry to check: "O=c1oc2ccc([N+](=O)[O-])cc2cc1Br"
Solution: inactive

Exercise: Entry to check: COC(C(=O)[C@@H](O)[C@@H](C)O)[C@@H]1Cc2cc3cc(O[C@H]4C[C@@H](O[C@H]5C[C@@H](O)[C@H](O)C(C)O5)[C@H](O)C(C)O4)c(C)c(O)c3c(O)c2C(=O)[C@H]1O[C@H]1C[C@@H](O[C@H]2C[C@@H](O[C@H]3C[C@@H](O)[C@H](OC)C(C)O3)[C@@H](O)C(C)O2)[C@H](O)C(C)O1 (some centres not stated)
Solution: active

###

- System: SF-268 CNS
- assay-summary: NCI-60 one-dose screen, 48 h
- assay-context: 10 µM unless noted
This is part of a sample that, as a whole, favours compounds with a hit. Of some 83,000 tested, about 20% had one in any assay. Active and inactive are the calls of the source. The calls were made as follows: active = growth percent below 10; inactive = the rest.
Select the correct class. Options are YES for active, NO for inactive and nothing else.

COC(=O)c1c2c(c[n+]([O-])c1C)C(=O)C(NCc1ccccc1)=CC2=O; YES

Let us examine a further case.
Exercise: Record lookup: outcome of this test for "C=CCn1cc(-c2nc3ccccc3s2)c2cc(-c3ccc4c5c(cccc35)C(=O)N(N)C4=O)ccc21" ?
Solution: NO

###

- Test system: BT-549 breast
- assay-summary: NCI-60 one-dose screen, 48 h
- assay-context: 10 µM unless noted
The panel holds about 83,000 compounds, 20% with a hit somewhere; the sample as a whole holds those more often. Calls of active or inactive are those of the source. How the source made its calls: active means growth percent below 10; inactive means the rest.
Select the correct class. Options are t = active, f = inactive and nothing else.

Solved entries (count: 8):
CSc1nnc(-c2cnn3c2NC(c2ccccc2)C3)n1-c1ccc(C(F)(F)F)cc1 (centres undefined); f
C#CCn1cnc2c(Nc3cccc(NC(=O)C=C)c3)ncnc21; f
COc1ccc(N2CCC(=O)NC2=S)cc1; f
CN(C)C1CCN(Cc2ccc(NC(=O)c3cncc(C#Cc4cnc(N)c5ncccc45)c3)cc2C(F)(F)F)CC1; f
CCN(C(=O)N1CCN(c2cc3c(cc2F)c(=O)c(C(=O)O)cn3C2CC2)CC1)c1nc(-c2ccc(Cl)cc2)cs1; t
O=C1Nc2ccc(I)cc2C1=O; f
O=C(OCc1ccc2cccc(O)c2n1)N1CCN(C(=O)c2cc3cc(F)ccc3[nH]2)CC1; t
CC(=O)c1cc(O)c2ccccc2c1O; f

Let us examine a further case.
Exercise: Record lookup: outcome of this test for COc1cccc(CNc2ncnc3c2ncn3C2OC(CO)C(O)C2O)c1O (centres undefined) ?
Solution: t

###

- Tested on: NCI/ADR-RES ovarian
- assay-summary: NCI-60 one-dose screen, 48 h (100 = growth as untreated, 0 = no growth, -100 = all killed)
- assay-context: 10 µM unless noted
The panel holds about 83,000 compounds, 20% with a hit somewhere; the sample as a whole holds those more often. Activity calls are given as the source filed them. How the source made its calls: active means growth percent below 10; inactive means the rest.
metric-name: growth

Known results for compounds:
Cc1ccc(Sc2nnc(/N=C3\C(=O)Nc4ccccc43)s2)cc1; 101% (inactive)
C=CCn1c(SCC(=O)Nc2ccc(C(=O)/C=C/c3cc4cc(OC)ccc4nc3Cl)cc2)nnc1-c1ccc(Br)cc1; 92.3% (inactive)
Cn1cc(-c2csc(-c3ccc(Cl)cc3)n2)c2cccnc21; -35.5% [100 µM] (active)
CC1(C)CC[C@]2(C(=O)O)CC[C@]3(C)C(=CC[C@@H]4[C@@]5(C)C/C(=C/O)C(=O)C(C)(C)[C@@H]5CC[C@]43C)[C@@H]2C1; 38.8% (inactive)
O=C(NNc1nccc(Nc2ccc(S(=O)(=O)Nc3ccncc3)cc2)n1)c1ccccc1; 85.4% (inactive)
CCC(=C(c1ccc(OCCN2CCCC2)cc1)c1ccc(OCCN2CCCC2)cc1)c1ccc(Cl)cc1; 10.5% (inactive)

Exercise: Which growth value is on record for "CC1(C)c2[nH]c3ccccc3c2C[C@]2(C)[C@H]3CC=C4[C@@H]5C[C@@](C)(C(N)=O)CC[C@]5(C)CC[C@@]4(C)[C@]3(C)CC[C@@H]12" ?
Solution: 67.5% (inactive)

Exercise: Entry to check: "Cc1nc2sc(C(=O)Nc3ccccc3)c(N)c2cc1C(=O)c1ccccc1"
Solution: 37.8% (inactive)

###

- Test system: MCF7 breast
- assay-summary: NCI-60 one-dose screen, 48 h
- assay-context: 10 µM unless noted
This is part of a sample that, as a whole, favours compounds with a hit. Of some 83,000 tested, about 20% had one in any assay. Activity calls are given as the source filed them. Rule for the calls: active = growth percent below 10; inactive = the rest.
Select the correct class. Options are active, inactive and nothing else.

CSc1nc2sc3c(c2c(=O)n1-c1ccc([N+](=O)[O-])cc1)CCCCC3; inactive
CCOC(=O)c1c(C)nc2c(c1N)CC(=O)N2Cc1cc(F)cc(Cl)c1; inactive
O=C1c2cccc(NCCN=Cc3cc(O)ccc3O)c2C(=O)c2c(NCCN=Cc3cc(O)ccc3O)cccc21; active

Exercise: Record lookup: outcome of this test for "COC(=O)c1cc(-c2ccccc2)[nH]c1N/N=C/c1c(Cl)cccc1Cl" ?
Solution: active

Exercise: Entry to check: COC(C(=O)[C@@H](O)[C@@H](C)O)[C@@H]1Cc2cc3cc(O[C@H]4C[C@@H](O[C@H]5C[C@@H](O)[C@H](O)C(C)O5)[C@H](O)C(C)O4)c(C)c(O)c3c(O)c2C(=O)[C@H]1O[C@H]1C[C@@H](O[C@H]2C[C@@H](O[C@H]3C[C@@H](O)[C@H](OC)C(C)O3)[C@@H](O)C(C)O2)[C@H](O)C(C)O1 (some centres not stated)
Solution: active

Exercise: Entry to check: "O=c1c2cc(-c3ccccc3)sc2nc2sc(-c3ccccc3)nn12"
Solution: inactive

Exercise: Entry to check: "Cc1nc(-c2ccccc2)cc2c(O)c(C(=O)NN)[nH]c(=O)c12"
Solution: inactive

###

- Test system: UACC-257 melanoma
- assay-summary: NCI-60 one-dose screen, 48 h
- assay-context: 10 µM unless noted
This is part of a sample that, as a whole, favours compounds with a hit. Of some 83,000 tested, about 20% had one in any assay. The source made the active and inactive calls. How the source made its calls: active means growth percent below 10; inactive means the rest.
Select the correct class. Options are label 1 (active), label 0 (inactive) and nothing else.

Solved entries (count: 3):
Nc1ncnc2c1N=C(c1ccc(Cl)cc1)CC(c1ccc3c(c1)OCO3)N2 (centres undefined); label 0
CC1=NN(c2nc(SCC(=O)Nc3nc4ccc(C)cc4s3)nc(-c3ccccc3)c2C#N)C(=O)C1; label 0
CCOC(=O)CNP(=O)(OC[C@@H](Cc1ccccc1)NC(=O)c1cc2ccccc2s1)Oc1ccccc1 (some centres undefined); label 0

Exercise: Record lookup: outcome of this test for Nc1c(C(=O)Nc2ccccc2Cl)sc2nc3c(cc12)C(O)CCC3 (centres undefined) ?
Solution: label 0

Exercise: Entry to check: "CC(C)c1ccc(COCc2cc(CN3CCCC3)c(O)c3ncccc23)cc1"
Solution: label 1

Exercise: Entry to check: "C=C(C)[C@@H]1CC[C@]2(C)[C@H](CC=C3[C@@H]4[C@H](C)[C@@H](C)CC[C@]4(CO)CC[C@]32C)[C@@]1(C)CCCN"
Solution: label 1

Exercise: Entry to check: "CN([O-])c1nc(N(C)[O-])nc(N2CCOCC2)n1.CN([O-])c1nc(N(C)[OH2+])nc(N2CCOCC2)n1.[Fe+3]"
Solution: label 0

Exercise: Entry to check: "O=C1/C(=C/c2ccc(Cl)cc2)COc2ccc(O)cc21"
Solution: label 0

Exercise: Entry to check: "CNC(=O)c1cc(Oc2ccc3c(c2)sc2nc(-c4cc(OC)c(OC)c(OC)c4)cn23)ccn1"
Solution: label 0
